Value source: PubChem BioAssay AID2060340

- Tested on: 349418-098-R-PDC spheroids, viability, % test/control;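 note: spheroids exposed to compounds for 7 days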
- experiment: Anticancer human tumor 349418-098-R-PDC patient-derived lung adenocarcinoma cell line growth inhibition [IpAb]
- measurement_conditions: second compound 1 µM; first compound 1 µM; stronger effect = lower value; spheroids with HUVEC and MSC
Recorded measurements of viability, T/C, one per entry
State just the number; it will be interpreted in %.

molecule	assayed_system	result_value
C=CCn1c(=O)c2cnc(Nc3ccc(N4CCN(C)CC4)cc3)nc2n1-c1cccc(C(C)(C)O)n1 + CCN1CCN(Cc2ccc(Nc3ncc(F)c(-c4cc(F)c5nc(C)n(C(C)C)c5c4)n3)nc2)CC1	349418-098-R-PDC spheroids, viability, % test/control	9.92
CC1(C)CCC(CN2CCN(c3ccc(C(=O)NS(=O)(=O)c4ccc(NCC5CCOCC5)c([N+](=O)[O-])c4)c(Oc4cnc5[nH]ccc5c4)c3)CC2)=C(c2ccc(Cl)cc2)C1 + CCN1CCN(Cc2ccc(Nc3ncc(F)c(-c4cc(F)c5nc(C)n(C(C)C)c5c4)n3)nc2)CC1	349418-098-R-PDC spheroids, viability, % test/control	17.9

Turning now to a further record.
### Prompt Look at this molecule and give its reported viability, T/C. Cn1nccc1Nc1nccc(-c2ccn(C(CO)c3ccc(Cl)c(F)c3)c(=O)c2)n1 (stereo not drawn) + CC(C)NCC(C(=O)N1CCN(c2ncnc3c2C(C)CC3O)CC1)c1ccc(Cl)cc1
### Response 10.4
